These data points were gathered from paper PMC9769921.

Field: Kd. Provide a value for each of the compounds that follow.
// return numeric value only (unit: µM, not printed)

Which measured Kd belongs to N[C@@H](CCC(=O)O)C(=O)O [L-glutamate] , tested on His10-GlnHΔSP (GlnH) (Corynebacterium glutamicum)?
1260

Provide the documented Kd with His10-GlnHΔSP (GlnH) (Corynebacterium glutamicum) as the system for N[C@@H](CC(=O)O)C(=O)O [L-aspartate]
Sequence (Q8NM30 entry or part of it, stated change not applied): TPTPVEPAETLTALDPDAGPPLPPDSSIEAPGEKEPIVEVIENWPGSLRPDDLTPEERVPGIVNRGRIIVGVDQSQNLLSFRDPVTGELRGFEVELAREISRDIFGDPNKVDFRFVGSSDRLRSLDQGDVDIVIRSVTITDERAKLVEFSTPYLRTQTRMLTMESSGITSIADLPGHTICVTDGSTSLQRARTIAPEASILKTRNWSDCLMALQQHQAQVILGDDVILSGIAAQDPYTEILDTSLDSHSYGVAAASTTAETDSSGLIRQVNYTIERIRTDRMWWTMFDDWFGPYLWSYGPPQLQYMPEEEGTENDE
264

====

Dear all, this message contains Kd results, target or system His10-GlnHcore (GlnH) (Corynebacterium glutamicum).
// units = µM; emit number, no label

Give recorded Kd with His10-GlnHcore (GlnH) (Corynebacterium glutamicum) for the following compound: N[C@@H](CCC(=O)O)C(=O)O [L-glutamate]
Sequence (Q8NM30 entry or part of it): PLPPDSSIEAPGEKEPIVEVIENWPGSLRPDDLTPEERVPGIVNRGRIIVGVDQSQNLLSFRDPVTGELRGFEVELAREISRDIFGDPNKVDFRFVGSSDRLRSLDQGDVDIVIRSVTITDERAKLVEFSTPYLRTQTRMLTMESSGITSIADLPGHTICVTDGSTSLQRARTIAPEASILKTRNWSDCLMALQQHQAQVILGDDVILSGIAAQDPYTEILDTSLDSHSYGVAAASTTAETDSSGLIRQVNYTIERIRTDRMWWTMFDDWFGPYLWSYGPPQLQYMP
1460

Find the measured Kd: item N[C@@H](CC(=O)O)C(=O)O [L-aspartate] , target or system His10-GlnHcore (GlnH) (Corynebacterium glutamicum).
242
